Reference source: patent US7625948B2

# Assay name: Test Example 6: determination of the concentration in plasma (unchanged form and metabolite, orbital venous plexus and portal vein, LC/MS)
# Type: in vivo
# Details: hamster, plasma from portal vein blood, oral; 4 h after 30 mg/kg p.o., Syrian hamsters; read-out: Concentration in plasma, unaltered form, blood of portal vein
Measured quantity: concentration at 4 h

Check out these entries, answers already filled in.
COC(=O)C(COC(=O)Cc1ccc(NC(=O)c2ccccc2-c2ccc(C(F)(F)F)cc2)cc1)(C(=O)OC)c1ccccc1 :: < 200 nM
CCOC(=O)C(COC(=O)Cc1ccc(NC(=O)c2ccccc2-c2ccc(C(F)(F)F)cc2)c(C(=O)N(C)C)c1)(C(=O)OCC)c1ccccc1 :: 10 nM
O=C(Cc1ccc(NC(=O)c2ccccc2-c2ccc(C(F)(F)F)cc2)cc1)OCC(C(=O)NCC(F)(F)F)(C(=O)NCC(F)(F)F)c1ccccc1 :: < 200 nM

Next item in the queue.
The measured concentration at 4 h associated with CCOC(=O)C(COC(=O)Cc1ccc(OC(=O)c2ccccc2-c2ccc(C(F)(F)F)cc2)cc1)(C(=O)OCC)c1ccccc1 reads < 200 nM
